The following compounds are shown together with reported MIC values.
- Test system: Rifampicin resistant strain ACTCC35838
- PROTOCOL DETAILS: microbe, parasite or virus in culture
- Assay type: cell-based, Mycobacterium tuberculosis
- CONDITION DETAILS: Mycobacterium tuberculosis, ACTCC35838, read-out: MIC RIF res2

Completed entries (count: 5):
| COMPOUND | ENDPOINT RESULT |
| --- | --- |
| Cc1cn2c(C(=O)NCc3ccc(S(F)(F)(F)(F)F)cc3)c(C)nc2s1 [Compound 19] | 0.64 µM |
| Cc1ccn2c(C(=O)NCc3ccc(S(F)(F)(F)(F)F)cc3)c(C)nc2c1 [Compound 13] | 0.52 µM |
| NNC(=O)c1ccncc1 [INH, Isoniazid, reference compound] | 0.37 µM |
| CO[C@H]1/C=C/O[C@@]2(C)Oc3c(C)c(O)c4c(O)c(c(/C=N/N5CCN(C)CC5)c(O)c4c3C2=O)NC(=O)/C(C)=C\C=C\[C@H](C)[C@H](O)[C@@H](C)[C@@H](O)[C@@H](C)[C@H](OC(C)=O)[C@@H]1C [RIF, Rifampicin, reference compound] | > 50 µM |
| Cc1ccc2nc(C)c(C(=O)NCc3cccc(S(F)(F)(F)(F)F)c3)n2c1 [Compound 16] | 7.2 µM |

Look up and state reported MIC for CCc1nc2ccc(Cl)cn2c1C(=O)NCc1cccc(S(F)(F)(F)(F)F)c1 [Compound 18] 0.5 µM

Look up and state reported MIC for Cc1ccc2nc(C)c(C(=O)NCc3ccc(S(F)(F)(F)(F)F)cc3)n2c1 [Compound 15] 0.016 µM

Look up and state reported MIC for CCc1nc2ccc(Cl)cn2c1C(=O)NCc1ccc(S(F)(F)(F)(F)F)cc1 [Compound 17] 0.022 µM

Look up and state reported MIC for Cc1ccn2c(C(=O)NCc3cccc(S(F)(F)(F)(F)F)c3)c(C)nc2c1 [Compound 14] 0.13 µM
